test: in vivo; settings: NIH-III, mouse, plasma, ip, 186 mg/kg
value.kind: half-life (min)
Give the value, in units of min, as a plain number.

IN: Please give the measured half-life for this compound: c1c2c(cc3nc(CCCN4CCOCC4)nnc13)CCC2
OUT: 53.3

====

Tested on: HCT116 cells
Experiment: Antiproliferative potency, 4 h exposure, sulforhodamine B
Format: cell-based, human
Conditions: Homo sapiens, HCT-116, 4 h, HCT116, 4 h exposure, anoxic; read-out: IC50
Protocol: Antiproliferative potency of SN30000 and its major metabolites following 4 h exposure of HCT116 cells under aerobic or anoxic conditions. […] a HCT116 cells, originally from ATCC, were authenticated by short tandem repeat profiling and confir med mycoplasma-free by PCR/ELISA assay . […] In vitro cytotoxicity of SN30000 and metabolites was measured as the inhibition of cell proliferation as described previously (Gu et al., 2009). […]
value.kind: IC50 (µM)
Please reply with the bare figure in µM and do not write the unit itself.

IN: Entry [O-][n+]1nc(CCCN2CCOCC2)nc2cc3c(cc21)CCC3 : reported IC50 = ?
OUT: 900

====

assay: Plasma, liver and brain PK after i.p. dosing with M14; type: in vivo; details: NIH-III nude, mouse, in vivo, ip, 135 mg/kg, i.p. M14 135 mg/kg; liver; read-out: Cmax
value.kind: Cmax
# answer = value followed by unit

IN: Tell me the measured Cmax of [O-][n+]1nc(CCCN2CCOCC2)nc2cc3c(cc21)CCC3 , please.
OUT: 319 µM

====

assay: Plasma, liver and brain PK after i.p. dosing with M14; type: in vivo; conditions: NIH-III nude, mouse, in vivo, ip, 135 mg/kg, i.p. M14 135 mg/kg; liver; read-out: Terminal T1/2
value.kind: half-life (h)
Field format: number, assumed h, no unit text.

>>> print(df.to_string())
                               smiles_entry  result_units  measured_result
0  [O-][n+]1nc(CCCN2CCOCC2)nc2cc3c(cc21)CCC3             h            0.418

IN: Would you kindly share the measured half-life for O=C(O)CCc1nc2cc3c(cc2[n+]([O-])n1)CCC3 ?
OUT: 2.41

====

experiment: in vivo; conditions: NIH-III, mouse, plasma, ip, 1.86 mg/kg
value.kind: half-life (min)
// return numeric value only (unit: min, not printed)

IN: # half-life lookup, item c1c2c(cc3nc(CCCN4CCOCC4)nnc13)CCC2
OUT: 19.8

====

assay: Plasma, liver and brain PK after i.p. dosing with M14; type: in vivo; conditions: NIH-III nude, mouse, ip; i.p. M14 135 mg/kg; brain; read-out: Terminal T1/2
value.kind: half-life (min)
Express it in min; write the number only.

IN: # get_value(readout='half-life', item= c1c2c(cc3nc(CCCN4CCOCC4)nnc13)CCC2 )
OUT: 26

====

assay: in vivo; conditions: NIH-III, mouse, plasma, ip, 18.6 mg/kg
value.kind: Cmax (nM)
Quick reminder: number only, in nM, skip the unit.

IN: Entry c1c2c(cc3nc(CCCN4CCOCC4)nnc13)CCC2 has what Cmax?
OUT: 202

====

assay: in vivo; details: NIH-III, mouse, plasma, ip, 92.8 mg/kg
value.kind: half-life (min)
Write the value in min as a bare number.

IN: Dear colleague, I am looking for the recorded half-life of the following compound: c1c2c(cc3nc(CCCN4CCOCC4)nnc13)CCC2
OUT: 26.2
